Literature roundup of Methionine aminopeptidase 2 (Homo sapiens, UniProt P50579) data, read-out IC50.
Sequence (P50579 whole entry, species assumed): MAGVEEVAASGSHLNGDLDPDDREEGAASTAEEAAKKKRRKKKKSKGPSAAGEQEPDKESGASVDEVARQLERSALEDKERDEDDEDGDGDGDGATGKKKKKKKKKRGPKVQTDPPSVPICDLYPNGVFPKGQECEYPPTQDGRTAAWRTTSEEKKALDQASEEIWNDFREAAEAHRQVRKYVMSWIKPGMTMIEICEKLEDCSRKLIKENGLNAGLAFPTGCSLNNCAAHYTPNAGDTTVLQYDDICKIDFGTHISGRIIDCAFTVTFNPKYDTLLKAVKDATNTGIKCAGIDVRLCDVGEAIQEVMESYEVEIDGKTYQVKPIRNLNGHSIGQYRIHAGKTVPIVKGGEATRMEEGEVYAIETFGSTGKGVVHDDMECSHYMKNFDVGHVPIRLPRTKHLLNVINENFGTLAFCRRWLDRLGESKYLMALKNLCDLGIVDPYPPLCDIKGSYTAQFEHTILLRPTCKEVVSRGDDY

Worked cases, answers included:
CC(=O)N(CCN1CCCCC1)Cc1ccc(OC[C@H]2CCCN2c2ncnc3[nH]cnc23)c2ccccc12 = 10 to 1000 nM
NC(=O)c1cccc(N2CCC(O)(C(=O)NCCc3ccccc3C(F)(F)F)C2=O)c1 (centres unmarked) = 10 to 1000 nM

q: Send back Methionine aminopeptidase 2 (Homo sapiens, UniProt P50579) IC50 of COC(=O)c1ccc2[nH]c(CC3CCCN3c3ccnc4ncnn34)cc2c1 (centres unmarked) only.
a: 10 to 1000 nM

q: Send back Methionine aminopeptidase 2 (Homo sapiens, UniProt P50579) IC50 of O=C(NCc1cc(F)cc(Cl)c1)C1(O)CCN(Cc2nc3ccccc3[nH]2)C1=O (centres unmarked) only.
a: 1000 to 10000 nM

q: Send back Methionine aminopeptidase 2 (Homo sapiens, UniProt P50579) IC50 of CC(C)(C)OC(=O)N[C@@H](Cc1c[nH]cn1)C(=O)N1CCc2cccc(OC[C@H]3CCCN3c3ncnc4[nH]cnc34)c2C1 only.
a: 1000 to 10000 nM

q: Send back Methionine aminopeptidase 2 (Homo sapiens, UniProt P50579) IC50 of O=CN(CCN1CCCCC1)Cc1ccc(OC[C@H]2CCCN2c2ncnc3[nH]cnc23)c2ccccc12 only.
a: 10 to 1000 nM

q: Send back Methionine aminopeptidase 2 (Homo sapiens, UniProt P50579) IC50 of O=C(c1cc2cc(N3CC[C@](O)(C(=O)NCc4cc(F)cc(Cl)c4)C3=O)ccc2[nH]1)N1CCC1 only.
a: 10 to 1000 nM

q: Send back Methionine aminopeptidase 2 (Homo sapiens, UniProt P50579) IC50 of O=C(NCCCO)c1cccc(N2CC[C@@](O)(C(=O)NCc3cc(F)cc(Cl)c3)C2=O)c1 only.
a: 1000 to 10000 nM
